- ASSAY SYSTEM: T1, recombinant human BAFF-Fc (Sino Biological) (human, UniProt Q9Y275 134-285)
- T1 construct: Bought reagent; also called hBAFF; not shown: Fc moiety detected by anti-human Fc
- T1 sequence (Q9Y275 134-285): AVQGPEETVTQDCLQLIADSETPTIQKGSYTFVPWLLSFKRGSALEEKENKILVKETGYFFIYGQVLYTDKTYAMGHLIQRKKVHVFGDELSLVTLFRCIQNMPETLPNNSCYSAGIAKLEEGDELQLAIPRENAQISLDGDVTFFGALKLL
- EXPERIMENTAL DETAILS: ELISA, purified monomeric VNAR on coated BAFF-Fc, anti-FLAG detection
REPORTED PROPERTY: EC50 (nM)
Respond numerically; units are nM and should not be typed.

BINDER: ID2-101B11 (VNAR, Nurse shark VNAR single domain, monomer) VNAR: AARVDQTPRSVTKETGESLTINCVLRDSNCALSSTYWYRKKSGSTNEENISKGGRYVETVNSGSKSFSLRINDLTVEDSGTYRCKVMLDPLLCPALLESMTDVYGGGTAVTVNA
ASSAY VALUE: 2.49

So for ID2-101B01 (VNAR, Nurse shark VNAR single domain, monomer) VNAR: AARVDQTPQTITKETGESLTINCVLRDSNCALSSTYWYRKKSGSTNEESISKGGRYVETVNSGSKSFSLRINDLTVEDSGTYRCNVAPTIISGCSIKRRDVYGGGTAVTVNA , the logged EC50 turned out to be 7.4

So for ID2-101B07 (VNAR, Nurse shark VNAR single domain, monomer) VNAR: AARVDQTPRSVTKETGESLTINCVLRDSICALSSTHWYRKKSGSTNEESISKGGRYVETVNSGSKSFSLRINDLTVEDSGTYRCKVHGGRSTGLCGDVLLAGDVYGGGTAVTVNA , the logged EC50 turned out to be 0.8

So for ID2-101A03 (VNAR, Nurse shark VNAR single domain, monomer) VNAR: AARVDQTPQTITKETGESLTINCVLRDNNCALSTTYWYRKKSGSTNEENISKGGRYVETVNSGSKSFSLKINDLTVEDSGTYRCKVRVDRLLCGWRVGRRQLGDVYGGGTVVTVNA , the logged EC50 turned out to be 17.2

From: patent US20200024354A1
